molecular target: human M3 muscarinic acetylcholine receptor (Homo sapiens); construct: host or cells: CHO-K1 cells, stably transfected; assay: R-CEPIAer ER calcium assay of Gq-coupled receptor activation, M3-transfected CHO-K1 cells; type: cell-based; conditions: 0.5 μM carbachol; Hill equation fit
Sequence (P20309 whole entry): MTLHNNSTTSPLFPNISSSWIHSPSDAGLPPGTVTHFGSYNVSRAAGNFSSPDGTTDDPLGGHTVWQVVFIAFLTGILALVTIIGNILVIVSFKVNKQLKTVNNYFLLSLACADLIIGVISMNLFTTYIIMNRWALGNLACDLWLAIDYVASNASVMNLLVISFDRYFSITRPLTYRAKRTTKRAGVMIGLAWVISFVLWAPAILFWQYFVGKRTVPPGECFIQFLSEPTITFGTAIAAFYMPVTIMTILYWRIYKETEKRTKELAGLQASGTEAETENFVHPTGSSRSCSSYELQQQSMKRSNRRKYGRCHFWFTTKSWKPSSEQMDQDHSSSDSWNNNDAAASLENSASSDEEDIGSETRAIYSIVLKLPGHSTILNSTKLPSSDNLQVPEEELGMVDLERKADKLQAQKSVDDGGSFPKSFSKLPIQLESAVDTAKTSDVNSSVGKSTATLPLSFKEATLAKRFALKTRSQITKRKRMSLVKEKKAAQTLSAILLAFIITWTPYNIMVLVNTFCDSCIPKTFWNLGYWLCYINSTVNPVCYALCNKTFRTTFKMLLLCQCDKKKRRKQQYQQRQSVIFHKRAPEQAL
parameter: Hill slope of inhibition curve, M3 receptor

>  <compound>
Cc1cc(=N)c2ccccc2n1CCCCCCCCCCn1c(C)cc(=N)c2ccccc21.Cl.Cl [dequalinium chloride]

>  <target or system>
human M3 muscarinic acetylcholine receptor (Homo sapiens)

>  <value>
0.90

$$$$
>  <compound>
c1cc2cc(c1)C[n+]1ccc(c3ccccc31)NCc1ccc(cc1)CNc1cc[n+](c3ccccc13)C2

>  <target or system>
human M3 muscarinic acetylcholine receptor (Homo sapiens)

>  <value>
1.8

$$$$
>  <compound>
c1ccc2c(c1)c1cc[n+]2CCCCC[n+]2ccc(c3ccccc32)NCCCCCN1

>  <target or system>
human M3 muscarinic acetylcholine receptor (Homo sapiens)

>  <value>
1.47

$$$$
>  <compound>
Cl.c1ccc2c(c1)CCC[C@H]2Nc1nc2ccccc2[nH]1

>  <target or system>
human M3 muscarinic acetylcholine receptor (Homo sapiens)

>  <value>
1.7

$$$$

Where do the numbers come from? From paper PMC7525093.
